Test system: HOP-62 NSCLC
Assay: NCI-60 one-dose screen, 48 h (100 = growth as untreated, 0 = no growth, -100 = all killed)
Conditions: 10 µM unless noted
Compounds without any hit were thinned out: in the full panel of roughly 83,000, 20% have a hit.
Response field label takes 1 (yes) when growth is strictly below 70% and 0 (no) in all other cases.

Worked cases, answers included:
[
  {
    "COMPOUND": "C[N+](C)(C/C=C/c1ccccc1)Cc1ccccc1",
    "ASSIGNED CATEGORY": "0 (no)"
  },
  {
    "COMPOUND": "CC(=O)c1c(Nc2ccc(F)c(F)c2F)[nH]c2c(F)cc(F)cc2c1=O",
    "ASSIGNED CATEGORY": "1 (yes)"
  }
]

In the record for `NNC(=S)N/N=C/c1ccccn1` , is growth less than 70%?
1 (yes)

Similarly, `CCn1cc(C2=C(c3cn(C)c4ncccc34)C(=O)NC2=O)c2cccnc21` ?
0 (no)

Proceed to `O=C(c1ccc(F)c(Cl)c1)N1c2ccccc2Sc2ccccc21`
0 (no)

Lookup `O=S(=O)(c1ccccc1)N1CCCN(c2nc(-c3ccccc3)nc3nc(-c4ccccc4)oc23)CC1`
0 (no)

What would you report for `CCOC(=O)c1c2c(n3c1NCC3)-c1ccccc1C2=O` ?
0 (no)

Please answer likewise for `Cc1ncc(C(=O)Nc2ccc(CN3CCN(C)CC3)c(C(F)(F)F)c2)cc1C#Cc1cnc(N)c2ccncc12`
1 (yes)

Try the compound `CCOC(=O)NN1CC(O)=C(c2nc(-c3ccc(Br)cc3)cs2)C1=N`
0 (no)
